Data provenance is patent US20240293351A1.

- measurement-description: Drug-drug interaction study: bardoxolone methyl alone and with itraconazole in healthy volunteers
- test-context: human, plasma, oral, 10 mg, Cmax, Geom. Mean, Bardoxolone Methyl Alone (A), paired analysis n = 15
measured-property: Cmax (ng/mL)
Expressed in ng/mL, but write only the number.

Problem: Item under review: COC(=O)[C@]12CCC(C)(C)C[C@H]1[C@H]1C(=O)C=C3[C@@]4(C)C=C(C#N)C(=O)C(C)(C)[C@@H]4CC[C@@]3(C)[C@]1(C)CC2 . Reported Cmax?
Solution: 2.41

---

- measurement-description: Drug-drug interaction study: bardoxolone methyl alone and with itraconazole in healthy volunteers
- test-context: human, plasma, po, 10 mg, Cmax, Mean, Period 1: single oral 10 mg bardoxolone methyl alone, fasted, plasma, n = 16
measured-property: Cmax (ng/mL)
Expressed in ng/mL, but write only the number.

Problem: Item under review: COC(=O)[C@]12CCC(C)(C)C[C@H]1[C@H]1C(=O)C=C3[C@@]4(C)C=C(C#N)C(=O)C(C)(C)[C@@H]4CC[C@@]3(C)[C@]1(C)CC2 [Bardoxolone methyl] . Reported Cmax?
Solution: 2.58
